ASSAY_COMMENT: NCI Yeast Anticancer Drug Screen. Data for the sgs1 mgt1 strain (AID 161);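 note: 0% = growth of cultures given vehicle only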
CONDITION_DESCRIPTION: S. cerevisiae sgs1 mgt1 strain, at 50.0 µM (retest, dose inferred, filed as 5.0), stronger effect = higher value
This is part of a sample that, as a whole, favours compounds with a hit. Of some 79,000 tested, about 15% had one in any assay.
EXPERIMENTAL_READOUT: growth inhibition (%)
Give bare numbers, in %.

Please review the following examples before continuing.
- COMPOUND: "O=C1C(=O)N(c2cc(Cl)ccc2Cl)C(=O)C(=O)C1c1nc2ccccc2o1"
  NUMERIC_READOUT: 22
- COMPOUND: "CC(C)(C)c1ccc(O)c(C2CCCCC2)c1"
  NUMERIC_READOUT: 99
- COMPOUND: "Cc1cc(O)c2c(c1)C(=O)c1c(c(O)cc(O)c1-c1c(O)cc(O)c3c1C(=O)c1cc(C)cc(O)c1C3=O)C2=O"
  NUMERIC_READOUT: 64

# batch: return growth inhibition for each of the 5 compounds below
1. CCOc1ccc2c(c1)[n+]([O-])c(-c1ccc(Cl)cc1)c(N)[n+]2[O-]
2. COC1(OC)CNC(C(=O)O)C1 (stereo not given)
3. COc1cccc(C(=O)C(CN(C)C)CN(C)C)c1
4. O=S(=O)(Nc1ccnn1-c1ccccc1)c1ccc(N=Cc2c3ccccc3nc3cc(Cl)ccc23)cc1
5. O=C1OC(CCCl)(c2ccccc2)CC1CN1CCOCC1 (stereo not given)

[A]
1: 100; 2: -59; 3: 88; 4: 7; 5: 75

# batch: return growth inhibition for each of the 2 compounds below
1. Nc1nc(N)c2cc(S(=O)c3ccc4ccccc4c3)ccc2n1 (stereo not given)
2. C=CCOc1ccc2c(c1)CC=C1[C@@H]2CC[C@]2(C)C(=N\O)/C(=N/O)C[C@@H]12

[A]
1: 9; 2: 99

* * *

Give measured growth inhibition for each item. Keep answers brief.
ASSAY_COMMENT: NCI Yeast Anticancer Drug Screen. Data for the cln2 rad14 strain (AID 165);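 note: 0% = growth equal to vehicle treated cultures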
CONDITION_DESCRIPTION: S. cerevisiae cln2 rad14 strain, at 50.0 µM, stronger effect = higher value
Compounds without any hit were thinned out: in the full panel of roughly 79,000, 15% have a hit.
Numbers only, in %.

Please review the following examples before continuing.
- MOLECULE: "COc1ccc([C@H]2c3cc4c(cc3OC(O)(CO)[C@H]2C(=O)O)OCO4)c(OC)c1 (stereo not given in full) (tested in a mixture with another compound)"
  VALUE_UNITS: "%"
  growth inhibition: 28
- MOLECULE: "CN=C(N)N/N=C(\\C)c1ccc2c(c1)Cc1cc(/C(C)=N/NC(N)=NC)ccc1-2"
  VALUE_UNITS: "%"
  growth inhibition: 85.3
- MOLECULE: "Cc1ccc(C)c(NC(=O)CC2SC(=Nc3ccccc3Cl)NC2=O)c1 (stereo not given)"
  VALUE_UNITS: "%"
  growth inhibition: 78
- MOLECULE: "O=C(O)CSc1nc(-c2ccccc2)c(-c2ccccc2)n1-c1ccccn1"
  VALUE_UNITS: "%"
  growth inhibition: 61.8
- MOLECULE: "Cn1c(-c2ccc(/C=N/NC(N)=NCCCCCCN=C(N)N/N=C/c3ccc(-c4c[n+]5ccccc5n4C)cc3)cc2)c[n+]2ccccc12"
  VALUE_UNITS: "%"
  growth inhibition: 89.3

# batch: return growth inhibition for each of the 4 molecules below
1. CN(Cc1cnc2nc(N)nc(N)c2n1)c1ccc(C(=O)NC(CCC(=O)O)C(=O)O)cc1 (stereo not given)
2. CN(C)c1ccc(C2ON=C(c3ccccc3)N2C23CC4CC(CC(C4)C2)C3)cc1 (stereo not given)
3. O=C(NCCCCCCNC(=O)n1cc(F)c(=O)[nH]c1=O)NCCCOCCOCCOCCOCCOCCOCCOCCOCCOCCOCCOCCOCCOCCOCCOCCOCCOCCOCCOCCOCCOCCCNC(=O)C(O)C(O)C(O)C(O)CO (stereo not given)
4. CC(C)C(OC(=O)c1ccc(NCc2cc(O)ccc2O)cc1)C(C)C

[A]
1. 1.4
2. 55.3
3. 24.4
4. 88

# batch: return growth inhibition for each of the 2 molecules below
1. O=C(c1cccc(Cl)c1)c1ccc2ccccc2c1C(=O)O
2. O=C1OC(=O)C2C3CCC(C3=C3CCCCC3)C12 (stereo not given)

[A]
5.6
-8.55

# batch: return growth inhibition for each of the 8 molecules below
1. O=C(O)C(Br)C(Br)c1ccccc1[N+](=O)[O-] (stereo not given)
2. CCOC(=O)c1c(C)[nH]c(CO)c1C
3. CN(C)c1ccc(C2C=C(c3ccccc3)Oc3ccccc32)cc1 (stereo not given)
4. CC(=O)Nc1ccc(C(=O)n2[nH]c(C)c(/C=C3\C(=O)C=Cc4ccccc43)c2=O)cc1
5. O=C1NC(=O)N(c2ccc([N+](=O)[O-])cc2)C1=O
6. O=C(CCl)Oc1c(Br)cc(-c2ccccc2)cc1Br
7. Cc1ccc2c(c1)C1(C)C=C(CN3CCN(C)CC3)C(=O)CC1O2 (stereo not given)
8. O=C1CCC/C(c2ccccc2)=N\N=C/1c1ccccc1

[A]
1. 77.2
2. 31.8
3. 95.8
4. 98.7
5. 18.1
6. 41.9
7. 99.6
8. -5.1

[Q] Requested read-out: growth inhibition. Entry: N#CC1C(=O)SC2c3ccccc3C(=O)c3ccccc3C12 (stereo not given)
[A] 42.6
